target: Receptor-type tyrosine-protein kinase FLT3 (Homo sapiens, UniProt P36888)
Sequence (P36888 whole entry): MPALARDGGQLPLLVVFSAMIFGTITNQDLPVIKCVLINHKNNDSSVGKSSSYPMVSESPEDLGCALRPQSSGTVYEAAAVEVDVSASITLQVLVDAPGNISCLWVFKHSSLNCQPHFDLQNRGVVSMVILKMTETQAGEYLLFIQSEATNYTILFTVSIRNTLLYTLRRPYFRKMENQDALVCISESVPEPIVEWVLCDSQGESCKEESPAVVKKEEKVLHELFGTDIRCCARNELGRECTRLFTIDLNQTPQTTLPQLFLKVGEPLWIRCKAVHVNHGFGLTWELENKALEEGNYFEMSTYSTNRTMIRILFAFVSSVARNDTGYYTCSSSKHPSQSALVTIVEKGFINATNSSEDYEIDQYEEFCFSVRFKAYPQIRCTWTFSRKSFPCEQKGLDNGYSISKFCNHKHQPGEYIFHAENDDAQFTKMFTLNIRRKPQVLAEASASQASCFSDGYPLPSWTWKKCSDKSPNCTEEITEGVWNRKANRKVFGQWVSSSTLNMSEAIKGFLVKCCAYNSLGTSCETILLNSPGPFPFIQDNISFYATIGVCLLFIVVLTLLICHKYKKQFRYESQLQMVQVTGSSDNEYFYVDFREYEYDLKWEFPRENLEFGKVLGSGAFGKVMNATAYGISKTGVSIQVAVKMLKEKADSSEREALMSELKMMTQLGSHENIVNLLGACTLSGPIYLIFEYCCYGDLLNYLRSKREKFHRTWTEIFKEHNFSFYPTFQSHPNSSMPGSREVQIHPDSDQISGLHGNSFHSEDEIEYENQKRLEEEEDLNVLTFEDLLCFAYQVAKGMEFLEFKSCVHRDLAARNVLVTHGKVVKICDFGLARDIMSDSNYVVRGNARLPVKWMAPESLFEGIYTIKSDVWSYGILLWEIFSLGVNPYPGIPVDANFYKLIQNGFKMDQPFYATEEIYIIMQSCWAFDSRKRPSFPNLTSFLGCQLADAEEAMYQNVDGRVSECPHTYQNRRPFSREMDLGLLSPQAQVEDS
measure: pIC50
# reply with the number alone; pIC50 is -log10 of concentration in mol/L

Data request: Query for Receptor-type tyrosine-protein kinase FLT3 (Homo sapiens, UniProt P36888): what pIC50 does the record show for COc1ccc(-c2n[nH]c3ncc(-c4ccc(Cl)cc4N)cc23)cc1 ?
Data returned: 5.89

###

system: MV4-11; assay: Cytotoxicity against human MV4-11 cells assessed as cell viability at 1 uM after 24 hrs by WST1 assay; format: functional; conditions: MV4-11, 24 h, read-out: Activity
measure: viability at 1 µM (%)
Output spec: scalar in %, unitless text.

Data request: Reported viability at 1 µM for Cc1n[nH]c2ncc(-c3ccc(Cl)cc3N)cc12 : what is it?
Data returned: 91

Data request: Can you handle COc1ccc(-c2n[nH]c3ncc(-c4ccc(Cl)cc4N)cc23)cc1 next?
Data returned: 30

Data request: Can you handle COc1ccc(-c2n[nH]c3ncc(-c4ccccc4N)cc23)cc1 next?
Data returned: 89

Data request: Can you handle COC(=O)c1cccc(N)c1-c1cnc2[nH]nc(-c3ccc(OC)cc3)c2c1 next?
Data returned: 90

Data request: Can you handle COc1ccc(-c2n[nH]c3ncc(-c4ccccc4NC(=O)NCc4ccccc4)cc23)cc1 next?
Data returned: 104

Data request: Can you handle Nc1cc(Cl)ccc1-c1cnc2[nH]nc(-c3ccccc3)c2c1 next?
Data returned: 85

Data request: Can you handle COc1ccc(-c2n[nH]c3ncc(-c4cccc(F)c4N)cc23)cc1 next?
Data returned: 82

Data request: Can you handle COc1ccc(-c2n[nH]c3ncc(-c4ccc(F)cc4N)cc23)cc1 next?
Data returned: 94

Data request: Can you handle COc1ccc(-c2n[nH]c3ncc(-c4cc([N+](=O)[O-])ccc4N)cc23)cc1 next?
Data returned: 92

Data request: Can you handle COc1ccc(-c2n[nH]c3ncc(-c4ccccc4NCc4ccccc4)cc23)cc1 next?
Data returned: 97

Data request: Can you handle CNc1ccccc1-c1cnc2[nH]nc(-c3ccc(OC)cc3)c2c1 next?
Data returned: 86

Data request: Can you handle COc1ccc(-c2n[nH]c3ncc(-c4c(N)cccc4[N+](=O)[O-])cc23)cc1 next?
Data returned: 93

Data request: Can you handle COc1ccc(-c2n[nH]c3ncc(-c4cc(Br)ccc4N)cc23)cc1 next?
Data returned: 82

###

assay: Cytotoxicity against rat L6 cells assessed as cell viability at 1 uM after 24 hrs by WST1 assay; format: cell-based; settings: read-out: Activity
Hi there, I'd appreciate the recorded viability at 24 h, 1 µM for every entry that follows.
Output spec: scalar in %, unitless text.

Data request: Reported viability at 24 h, 1 µM for COc1ccc(-c2n[nH]c3ncc(-c4ccccc4N)cc23)cc1 : what is it?
Data returned: 108

Data request: Can you handle COc1ccc(-c2n[nH]c3ncc(-c4ccccc4NC(=O)NCc4ccccc4)cc23)cc1 next?
Data returned: 104

Data request: Can you handle COc1ccc(-c2n[nH]c3ncc(-c4cccc(F)c4N)cc23)cc1 next?
Data returned: 100

Data request: Can you handle COc1ccc(-c2n[nH]c3ncc(-c4c(N)cccc4[N+](=O)[O-])cc23)cc1 next?
Data returned: 110

Data request: Can you handle CNc1ccccc1-c1cnc2[nH]nc(-c3ccc(OC)cc3)c2c1 next?
Data returned: 109

Data request: Can you handle COc1ccc(-c2n[nH]c3ncc(-c4cc(Br)ccc4N)cc23)cc1 next?
Data returned: 104

Data request: Can you handle COc1ccc(-c2n[nH]c3ncc(-c4cc([N+](=O)[O-])ccc4N)cc23)cc1 next?
Data returned: 92

Data request: Can you handle Cc1n[nH]c2ncc(-c3ccc(Cl)cc3N)cc12 next?
Data returned: 102

Data request: Can you handle COc1ccc(-c2n[nH]c3ncc(-c4ccc(Cl)cc4N)cc23)cc1 next?
Data returned: 107

Data request: Can you handle Nc1cc(Cl)ccc1-c1cnc2[nH]nc(-c3ccccc3)c2c1 next?
Data returned: 96

Data request: Can you handle COc1ccc(-c2n[nH]c3ncc(-c4ccc(F)cc4N)cc23)cc1 next?
Data returned: 104

Data request: Can you handle COc1ccc(-c2n[nH]c3ncc(-c4ccccc4NCc4ccccc4)cc23)cc1 next?
Data returned: 102

Data request: Can you handle COC(=O)c1cccc(N)c1-c1cnc2[nH]nc(-c3ccc(OC)cc3)c2c1 next?
Data returned: 105

###

assay: Cytotoxicity against mouse NIH/3T3 cells assessed as cell viability at 1 uM after 24 hrs by WST1 assay; type: cell-based, NIH3T3; settings: read-out: Activity
measure: viability at 24 h, 1 µM (%)
Output spec: scalar in %, unitless text.

Data request: Reported viability at 24 h, 1 µM for COc1ccc(-c2n[nH]c3ncc(-c4ccc(F)cc4N)cc23)cc1 : what is it?
Data returned: 104

Data request: Can you handle COc1ccc(-c2n[nH]c3ncc(-c4ccccc4NC(=O)NCc4ccccc4)cc23)cc1 next?
Data returned: 94

Data request: Can you handle COc1ccc(-c2n[nH]c3ncc(-c4c(N)cccc4[N+](=O)[O-])cc23)cc1 next?
Data returned: 102

Data request: Can you handle COc1ccc(-c2n[nH]c3ncc(-c4ccccc4N)cc23)cc1 next?
Data returned: 94

Data request: Can you handle COc1ccc(-c2n[nH]c3ncc(-c4cccc(F)c4N)cc23)cc1 next?
Data returned: 108

Data request: Can you handle COc1ccc(-c2n[nH]c3ncc(-c4cc(Br)ccc4N)cc23)cc1 next?
Data returned: 108

Data request: Can you handle COC(=O)c1cccc(N)c1-c1cnc2[nH]nc(-c3ccc(OC)cc3)c2c1 next?
Data returned: 101

Data request: Can you handle Cc1n[nH]c2ncc(-c3ccc(Cl)cc3N)cc12 next?
Data returned: 103

Data request: Can you handle CNc1ccccc1-c1cnc2[nH]nc(-c3ccc(OC)cc3)c2c1 next?
Data returned: 106

Data request: Can you handle COc1ccc(-c2n[nH]c3ncc(-c4ccc(Cl)cc4N)cc23)cc1 next?
Data returned: 106

###

assay: Cytotoxicity against mouse NIH/3T3 cells assessed as cell viability at 1 uM after 24 hrs by WST1 assay; type: cell-based, NIH3T3; details: read-out: Activity
Hi there, I'd appreciate the recorded viability at 24 h, 1 µM for every entry that follows.
Note: a bare number is incomplete; add the unit.

Data request: Reported viability at 24 h, 1 µM for COc1ccc(-c2n[nH]c3ncc(-c4ccccc4NCc4ccccc4)cc23)cc1 : what is it?
Data returned: 99%

Data request: Can you handle Nc1cc(Cl)ccc1-c1cnc2[nH]nc(-c3ccccc3)c2c1 next?
Data returned: 111%

Data request: Can you handle COc1ccc(-c2n[nH]c3ncc(-c4cc([N+](=O)[O-])ccc4N)cc23)cc1 next?
Data returned: 99%
